Here, each record is paired with measured Phage binding ELISA signal, Anti-PSMA Fab in presence of PSMA data.
biological target: T1, 006 PSMA Fab (biotinylated (site not given)); experiment: clonal phage ELISA on plate-bound PSMA Fab, competitor: PSMA antigen pre-incubated in the wells
T1 construct: Biotinylated PSMA Fab captured on neutravidin coated plates for the clonal phage ELISA; also called Anti-PSMA Fab
Where no end group is shown, it is not given here.
VALUE_TYPE: Phage binding ELISA signal, Anti-PSMA Fab in presence of PSMA

BINDER	RESULT
IPKWCTPSWMCEWV (cysteine pairing not given here; also: displayed on phage as fusion to pIII, pIII and linker sequence not given here, not shown: fused to pIII of the bacteriophage) [Phage-2504]	0.0916
EPKMCTPSWMCRGF (cysteine pairing not given here; also: displayed on phage as fusion to pIII, pIII and linker sequence not given here, not shown: fused to pIII of the bacteriophage) [Phage-2502]	0.0691
